tested on: NCI-H226 lung; assay: NCI-60 one-dose screen, 48 h (100 = growth as untreated, 0 = no growth, -100 = all killed); conditions: 10 µM unless noted
Compounds without any hit were thinned out: in the full panel of roughly 83,000, 20% have a hit.
Define the label as MET when growth is strictly less than 80% and as NOT MET in all remaining cases.

Would you please look over these solved cases?
compound="CN1C(=O)NC(Cc2c[nH]c3c(Cl)cccc23)C1=O (centres undefined)" group_label="NOT MET"
compound=Cc1cc(O)ccc1Sc1ccccc1[N+](=O)[O-] group_label="NOT MET"
compound=CNC(=O)c1c(NC(=O)c2ccc(C(C)C)cc2)sc2c1CCC(=O)C2 group_label=MET
compound=O=C(CCl)Nc1cc(O)c2c(c1)C(=O)c1cccc(O)c1C2=O group_label=MET
compound=COc1ccc2[nH]cc(C3(c4c[nH]c5ccc(OC)cc45)C(=O)Nc4ccc(F)cc43)c2c1 group_label=MET
compound=CN(C)c1ccc(C2(Cl)c3ccccc3N(C)c3ccccc32)cc1 group_label=MET
compound="CC(=O)N1N=C(C2C(=O)N(C)C(=O)N(C)C2=O)CC1c1ccccc1C(=O)O (centres undefined)" group_label="NOT MET"
compound=CCOC(=O)Nc1ccc2nc(N3CCCCCC3)sc2c1 group_label=MET

Enquiry: Does the reported growth of the following compound sit strictly below 80%? CCCCCCCOc1cccc(/C=C2\N=C3SCCCN3C2=O)c1
Return: NOT MET

Enquiry: Take the compound COC(=O)OC1C(O[C@H]2C[C@H]3[C@@H]4CC=C5C[C@@H](O)CC[C@]5(C)[C@H]4CC[C@]3(C)[C@H]2[C@H](C)C(=O)CCC(C)C)OCC(O)C1OC1OCC(O)C(O)C1OC(=O)c1ccc(OC)cc1 (some centres undefined) and say whether its growth is less than 80%.
Return: MET

Enquiry: Strictly below 80% in growth? Cc1ccc(OC2=C(C#N)C(=N)N3C(=NN2)Sc2c(C)ccc(C)c23)cc1
Return: NOT MET

Enquiry: Answer whether the compound COc1ccc([C@H]2c3[nH]c4ccccc4c3C[C@H]3C(=O)N(CCCCCCC(=O)NO)CC(=O)N23)cc1 has growth strictly less than 80%
Return: MET

Enquiry: Determine if Clc1ccc(C2=NN[C@H](c3cn(-c4ccccc4)nc3-c3ccccc3)C2)cc1 shows growth strictly lower than 80%.
Return: MET

Enquiry: Item CCN(CC)c1ccc(/C=N/N=C(N)N)cc1 : growth beneath 80%, strictly?
Return: NOT MET

----------
tested on: UACC-257 melanoma; assay: NCI-60 one-dose screen, 48 h (100 = growth as untreated, 0 = no growth, -100 = all killed); details: 10 µM unless noted
The panel holds about 83,000 compounds, 20% with a hit somewhere; the sample as a whole holds those more often.
A collection of compounds and their measured growth
// return numeric value only (unit: %, not printed)

Examples from the recorded data:
compound=C=C(C)[C@@H]1CC[C@]2(C(=O)O)CC[C@]3(C)[C@H](CC[C@@H]4[C@@]5(C)C[C@@H](CC#Cc6ccc(C(C)=O)s6)[C@H](O)C(C)(C)[C@@H]5CC[C@]43C)[C@@H]12 quantity_kind=growth observed_value=40.2
compound=CCCC(CCC)(C(N)=O)C(=O)O quantity_kind=growth observed_value=102
compound=CN(C)c1nc(-c2cccs2)n2nc(-c3ccco3)cc2n1 quantity_kind=growth observed_value=113
compound=OCCN(CCO)c1ccc2ccccc2c1 quantity_kind=growth observed_value=110

Enquiry: State measured growth of the compound CCCCc1nc(Cl)c(C2CC(c3ccc(S(N)(=O)=O)cc3)=NN2c2cc(Cl)cc(Cl)c2)[nH]1 (configuration not stated) with UACC-257 melanoma.
Return: 55.4

Enquiry: Specify the recorded growth for Cc1ccc(OC2=C(C#N)C(=N)N3C(=NN2)Sc2c(C)ccc(C)c23)cc1 , system: UACC-257 melanoma.
Return: 108

Enquiry: Tell me its growth on UACC-257 melanoma: O/N=C1\c2ccccc2-c2ccc(Br)cc21
Return: 106

Enquiry: Recall the reported growth of Nc1c(C(=O)Nc2cccc(Cl)c2)sc2nc3c(cc12)C(=O)CCC3 on UACC-257 melanoma and write it down.
Return: 68.9
